# PROTOCOL_DESCRIPTION: superoxide lowering in aged yeast cells, pilot screen, validation compound set (AID 2706);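 further: yeast exposed to compound for one week at 30 degrees C before staining; 100% = mean of all compound wells on the same plate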
# STATED_CONDITIONS: S. cerevisiae aging, superoxide DHE fluorescence; at 10 µM, stronger effect = lower value
METRIC_NAME: superoxide response (% of plate) (%)
Record the value in %, omitting the unit from your answer.

**Q:** Can you share its superoxide response (% of plate)? I mean this molecule: Oc1ccc(Oc2ncc(Cl)cc2Cl)cc1
**A:** 73.7

**Q:** Can you share its superoxide response (% of plate)? I mean this molecule: CCCOc1ccc(-c2cc(C(=O)NCC3CCCO3)c3ccccc3n2)cc1 (stereo not given)
**A:** 91.2

**Q:** Can you share its superoxide response (% of plate)? I mean this molecule: C[C@@H]1C[C@H]2[C@@H]3CCC4=CC(=O)C=C[C@]4(C)[C@@]3(F)[C@@H](O)C[C@]2(C)[C@H]1C(=O)CO
**A:** 107

**Q:** Can you share its superoxide response (% of plate)? I mean this molecule: Cc1cc(=O)oc(C)c1C(=O)NCCC(C)C
**A:** 87.3

**Q:** Can you share its superoxide response (% of plate)? I mean this molecule: CCOC(=O)c1c(C)oc2cc(Br)c(OC(C)C(=O)OCC)cc12 (stereo not given)
**A:** 93

* * *

# PROTOCOL_DESCRIPTION: modulators of CIT2-GFP expression in yeast, confirmation, S. cerevisiae, GFP fusion, cherry picks, mother/daughter gates (AID 2274)
# STATED_CONDITIONS: S. cerevisiae CIT2-GFP strain, flow cytometry, 3 h; measured here: mother cell gate; at 10 µM; stronger effect = higher value
METRIC_NAME: GFP response, % of DMSO (%)
Record the value in %, omitting the unit from your answer.

**Q:** Can you share its GFP response, % of DMSO? I mean this compound: CCc1ccc(NC(=O)c2nc(S(=O)(=O)Cc3ccccc3)ncc2Cl)cc1
**A:** 82.8

**Q:** Can you share its GFP response, % of DMSO? I mean this compound: CCOc1cc(C(=O)N2CCN(c3ccc(C(C)=O)cc3)CC2)cc(OCC)c1OCC
**A:** 105

**Q:** Can you share its GFP response, % of DMSO? I mean this compound: Cc1c(C(=O)Nc2ccccc2)cnn1-c1ccccc1
**A:** 103

**Q:** Can you share its GFP response, % of DMSO? I mean this compound: COC(=O)Cn1nc(-c2ccccc2)c2ccccc21
**A:** 98.1

**Q:** Can you share its GFP response, % of DMSO? I mean this compound: O=C1Nc2ccccc2/C1=C\C(=O)c1ccccc1
**A:** 104

**Q:** Can you share its GFP response, % of DMSO? I mean this compound: Cc1ccc(C(=O)/C=C/C(=O)c2ccc(C)cc2)cc1
**A:** 84.8

**Q:** Can you share its GFP response, % of DMSO? I mean this compound: Cc1ccc(N2C(=O)C3C4C=CC(CNC(=S)Nc5ccc(Cl)cc5)(O4)C3C2=O)cc1 (stereo not drawn)
**A:** 97.7

**Q:** Can you share its GFP response, % of DMSO? I mean this compound: C=CCOc1cccc(C(=O)/C=C2/C(=O)Nc3ccccc32)c1
**A:** 98.1

**Q:** Can you share its GFP response, % of DMSO? I mean this compound: COc1ccc(-c2cc3cc(C(=O)O)ccn3c2C(=O)c2ccccc2)cc1
**A:** 99.7

**Q:** Can you share its GFP response, % of DMSO? I mean this compound: COc1cc(/C=C/C(=O)c2c(O)ccc3c(C)cc(=O)oc23)ccc1O
**A:** 93.8

**Q:** Can you share its GFP response, % of DMSO? I mean this compound: O=[N+]([O-])c1cccc(/C=N/Nc2ncc(Br)cn2)c1
**A:** 83.7

**Q:** Can you share its GFP response, % of DMSO? I mean this compound: COc1ccc(C(=O)/C=C/c2ccccc2C(F)(F)F)cc1
**A:** 107

**Q:** Can you share its GFP response, % of DMSO? I mean this compound: CCCc1nn(-c2ccccc2)c2c1C(c1cccs1)C(C#N)=C(N)O2 (stereo not drawn)
**A:** 102

**Q:** Can you share its GFP response, % of DMSO? I mean this compound: Cc1ccc(-c2nnn(CC(=O)N(CC(=O)NC3CCCC3)c3ccc(F)cc3)n2)o1
**A:** 99.3

**Q:** Can you share its GFP response, % of DMSO? I mean this compound: CCSc1nnc(NC(=O)c2ccccn2)s1
**A:** 91

**Q:** Can you share its GFP response, % of DMSO? I mean this compound: CN1CC(=O)NC1=NC(=O)C12CC3CC(CC(C3)C1)C2
**A:** 92.1

**Q:** Can you share its GFP response, % of DMSO? I mean this compound: Nc1nc2c(ncn2COCCO)c(=O)[nH]1
**A:** 100

**Q:** Can you share its GFP response, % of DMSO? I mean this compound: COc1cc(NC(=O)c2ccccc2F)ccc1NC(=O)c1cc2ccccc2o1
**A:** 98.1

**Q:** Can you share its GFP response, % of DMSO? I mean this compound: COc1ccc(CN2CCSc3sccc3C2=O)cc1
**A:** 102

**Q:** Can you share its GFP response, % of DMSO? I mean this compound: CCCc1[nH]nc2c1C(c1ccc(O)cc1OCC)C(C#N)=C(N)O2 (stereo not drawn)
**A:** 104

**Q:** Can you share its GFP response, % of DMSO? I mean this compound: CCc1nnc(NC(=O)c2ccc(S(=O)(=O)N3CCCC(C)C3)cc2)o1 (stereo not drawn)
**A:** 99.3

**Q:** Can you share its GFP response, % of DMSO? I mean this compound: CCOC(=O)c1ccc(NC(=O)CCc2nc(-c3ccccc3Cl)no2)cc1
**A:** 98

**Q:** Can you share its GFP response, % of DMSO? I mean this compound: COc1cc(NC(=O)c2ccc(F)cc2)ccc1NC(=O)c1cc2ccccc2o1
**A:** 94.7
